Compiled IC50 measurements on Protease (Human immunodeficiency virus 1, UniProt Q9YQ12) taken from the literature.

// below: answered compounds
COMPOUND	IC50
Oc1cc(O)c2c(c1)O[C@@]1(c3ccc(O)c(O)c3)Oc3cc(O)c4c(c3[C@@H]2[C@H]1O)O[C@H](c1ccc(O)c(O)c1)[C@H](O)C4	> 173 µM
C[C@H](NC(=O)CCCCCCCCCCNC(=O)[C@]12CCC(C)(C)C[C@H]1C1=CC[C@@H]3[C@@]4(C)CC[C@H](OC(=O)CC(C)(C)CC(=O)O)C(C)(C)[C@@H]4CC[C@@]3(C)[C@]1(C)CC2)C(=O)O	> 50 µM
CC[C@H](C)[C@H](NC(=O)[C@@H](N)CO)C(=O)N[C@@H](C)C(=O)N[C@@H](CCC(=O)O)C(=O)NC12NC(=O)C3(OC(C)=O)C4C5CC(C6C5C3C61)C42 (mixture of isomers)	> 10 µM
CC1(C)CC(=O)C2=C(C1)Nc1ccccc1N(C(=O)C(=O)N1c3ccccc3NC3=C(C(=O)CC(C)(C)C3)[C@H]1c1ccccc1)[C@H]2c1ccccc1	> 1 µM
COc1ccc(S(=O)(=O)N(CC(C)C)C[C@@H](O)[C@H](Cc2ccccc2)NC(=O)CN([C@H]2CCOC2)S(C)(=O)=O)cc1OC	> 1 µM

# next compound below
stdin: Need IC50 of `CCCCCC(=O)O[C@H]1CC[C@]2(C)[C@H]3CC=C4[C@@H]5CC(C)(C)CC[C@]5(C(=O)NCCCCCCCCCCC(=O)N[C@H](C(=O)O)C(C)C)CC[C@@]4(C)[C@]3(C)CC[C@H]2C1(C)C` , thanks.
stdout: > 50 µM

---

Values of pIC50 for Protease (Human immunodeficiency virus 1, UniProt Q9YQ12), collected from a number of published sources:
Numbers only, as −log10 of the molar value.

CHEMICAL_SMILES	MEASURED_RESULT
CC(C)CN(C[C@@H](O)[C@H](Cc1ccccc1)NC(=O)Cn1ccc(N)nc1=O)S(=O)(=O)c1ccc([N+](=O)[O-])cc1	6.39

Count: 2. Required value per item: pIC50.
1. CC(C)[C@H](NC(=O)N(C)Cc1cncs1)C(=O)N[C@H](CC[C@H](Cc1ccccc1)NC(=O)OCc1cncs1)Cc1ccccc1
2. COc1ccc(N(CC(=O)N[C@@H](Cc2ccccc2)[C@H](O)CN(CC(C)C)S(=O)(=O)c2ccc(N)cc2)CC(=O)N2CCOCC2)cc1

stdout:
1. 6.41
2. 5.87
